AUC overview
test: Total AUC in BALB/c mouse at 2 mg/kg, iv; type: ADME, organism-based; set-up: dose 2 mg/kg, route iv; conditions: in vivo

STRUCTURE AS SMILES | AUC [ng·h/mL]
[2H]C([2H])([2H])n1ncc2cc(-c3nc(NCc4cccc(F)c4)[nH]c3-c3cccc(C)n3)ccc21 | 1170
Cc1cccc(-c2[nH]c(NCc3cccc(F)c3)nc2-c2ccc3c(cnn3C)c2)n1 | 870

###

Reported IC50 values, Cytochrome P450 2C9 (Homo sapiens).
MEASURED PROPERTY: IC50 (nM)

STRUCTURE AS SMILES | TARGET UNDER TEST | QUALIFIER SYMBOL | REPORTED VALUE
Cc1cccc(-c2[nH]c(NCc3cccc(Cl)c3F)nc2-c2ccc3[nH]ncc3c2)n1 | Cytochrome P450 2C9 (Homo sapiens) | = | 500
Cc1cccc(-c2[nH]c(NCc3ccc(F)cc3F)nc2-c2ccc3[nH]ncc3c2)n1 | Cytochrome P450 2C9 (Homo sapiens) | = | 500
Cc1cccc(-c2[nH]c(NCc3ccc(Cl)cc3F)nc2-c2ccc3[nH]ncc3c2)n1 | Cytochrome P450 2C9 (Homo sapiens) | = | 400
Cc1cccc(-c2[nH]c(NCc3ccc(F)c(F)c3)nc2-c2ccc3[nH]ncc3c2)n1 | Cytochrome P450 2C9 (Homo sapiens) | = | 400
Cc1cccc(-c2[nH]c(NCc3cccc(F)c3)nc2-c2ccc3c(cnn3C)c2)n1 | Cytochrome P450 2C9 (Homo sapiens) | > | 10000

meta.source: ChEMBL document CHEMBL5252597
